# System name: T1, Human CD137 ECD (human)
# T1 construct: also called 4-1BB
# T1 sequence (chain, as listed by the source limits assumed): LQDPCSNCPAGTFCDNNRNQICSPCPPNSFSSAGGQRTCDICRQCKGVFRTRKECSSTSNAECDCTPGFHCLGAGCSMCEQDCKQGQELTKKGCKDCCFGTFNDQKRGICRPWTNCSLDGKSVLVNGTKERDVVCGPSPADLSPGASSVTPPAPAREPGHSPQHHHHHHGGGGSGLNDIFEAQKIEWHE
# Assay procedure: SPR, vs parent H183/L072
Label Condition met when fold change of affinity is strictly below 0.8 fold; otherwise label Condition not met.

Please indicate whether the reported fold change of affinity of dBBDu183H P61F / dBBDu072L (antibody, name in Kabat numbering, V domains shown, as m1, one VH change) VH: QVQLVESGGGLVQPGRSLRLSCAASGFTFSNAWMHWVRQAPGKGLEWVAQIKDKGNAYAAYYAFSVKGRFTISRDDSKNSIYLQMNSLKTEDTAVYYCHYVHYASASTVLPAFGVDAWGQGTTVTVSS VL: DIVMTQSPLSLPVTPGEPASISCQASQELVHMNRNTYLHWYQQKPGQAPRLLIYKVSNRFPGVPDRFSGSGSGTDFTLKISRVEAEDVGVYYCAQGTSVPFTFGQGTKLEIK is strictly below 0.8 fold. Condition met

How about dBBDu183H V63G / dBBDu072L (antibody, name in Kabat numbering, V domains shown, as m1, one VH change) VH: QVQLVESGGGLVQPGRSLRLSCAASGFTFSNAWMHWVRQAPGKGLEWVAQIKDKGNAYAAYYAPSGKGRFTISRDDSKNSIYLQMNSLKTEDTAVYYCHYVHYASASTVLPAFGVDAWGQGTTVTVSS VL: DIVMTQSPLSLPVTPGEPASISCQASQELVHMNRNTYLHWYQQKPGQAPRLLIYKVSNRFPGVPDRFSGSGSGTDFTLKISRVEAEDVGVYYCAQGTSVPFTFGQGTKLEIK ? Condition not met

How about dBBDu183H T100bQ / dBBDu072L (antibody, name in Kabat numbering, V domains shown, as m1, one VH change) VH: QVQLVESGGGLVQPGRSLRLSCAASGFTFSNAWMHWVRQAPGKGLEWVAQIKDKGNAYAAYYAPSVKGRFTISRDDSKNSIYLQMNSLKTEDTAVYYCHYVHYASASQVLPAFGVDAWGQGTTVTVSS VL: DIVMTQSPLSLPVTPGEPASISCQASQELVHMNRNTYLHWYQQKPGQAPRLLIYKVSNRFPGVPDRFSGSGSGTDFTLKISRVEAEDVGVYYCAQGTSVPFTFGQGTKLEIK ? Condition met

How about dBBDu183H F100gE / dBBDu072L (antibody, name in Kabat numbering, V domains shown, as m1, one VH change) VH: QVQLVESGGGLVQPGRSLRLSCAASGFTFSNAWMHWVRQAPGKGLEWVAQIKDKGNAYAAYYAPSVKGRFTISRDDSKNSIYLQMNSLKTEDTAVYYCHYVHYASASTVLPAEGVDAWGQGTTVTVSS VL: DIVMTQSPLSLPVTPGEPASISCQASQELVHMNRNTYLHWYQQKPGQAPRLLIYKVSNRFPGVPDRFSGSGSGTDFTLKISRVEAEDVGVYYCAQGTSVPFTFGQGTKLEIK ? Condition not met
